biological target: human Siglec-7 on primary human monocyte-derived dendritic cells (human, UniProt Q9Y286 19-467); test: cell-based or functional assay
Sequence (Q9Y286 19-467): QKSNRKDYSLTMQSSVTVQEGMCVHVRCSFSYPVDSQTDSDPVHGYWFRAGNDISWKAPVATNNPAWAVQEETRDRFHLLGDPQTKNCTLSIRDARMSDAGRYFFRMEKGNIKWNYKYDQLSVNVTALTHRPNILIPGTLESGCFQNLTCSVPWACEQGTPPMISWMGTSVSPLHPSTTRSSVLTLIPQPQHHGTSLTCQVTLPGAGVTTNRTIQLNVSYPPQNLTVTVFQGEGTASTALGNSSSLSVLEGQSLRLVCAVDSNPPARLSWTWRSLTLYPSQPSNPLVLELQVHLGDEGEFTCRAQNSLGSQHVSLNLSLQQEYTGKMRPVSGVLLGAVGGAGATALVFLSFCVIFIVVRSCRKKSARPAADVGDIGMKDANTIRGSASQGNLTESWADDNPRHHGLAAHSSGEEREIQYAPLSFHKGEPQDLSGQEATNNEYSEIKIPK
For each of the binders below, state its Maximal downregulation (% Siglec-7 remaining).
Field format: number, assumed %, no unit text.

Lab note: measured Maximal downregulation (% Siglec-7 remaining) of S7AB-H8.9.1 (antibody, V domains shown) VH: QVQLVQSGAEVKKPGASVKVSCKASGYAFTAAWMNWVRQAPGQRLEWIGRIFPGLGHTNYAQKFQGRATLTEDTSTSTAYMELSSLRSEDTAVYYCARDYSDYYFDYWGQGTLVTVSS VL: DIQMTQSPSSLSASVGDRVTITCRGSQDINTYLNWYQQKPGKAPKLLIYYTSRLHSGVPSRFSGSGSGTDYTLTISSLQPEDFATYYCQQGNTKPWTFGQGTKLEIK was 4.3

Lab note: measured Maximal downregulation (% Siglec-7 remaining) of S7AB-H8.1 (antibody, V domains shown) VH: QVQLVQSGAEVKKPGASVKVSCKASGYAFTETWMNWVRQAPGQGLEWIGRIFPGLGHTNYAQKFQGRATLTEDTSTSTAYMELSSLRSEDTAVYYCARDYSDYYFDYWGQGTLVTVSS VL: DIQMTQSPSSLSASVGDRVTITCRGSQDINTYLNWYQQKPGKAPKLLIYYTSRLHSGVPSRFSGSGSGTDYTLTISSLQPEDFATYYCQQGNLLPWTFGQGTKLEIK was 10.9

Lab note: measured Maximal downregulation (% Siglec-7 remaining) of S7AB-H8.42 (antibody, V domains shown) VH: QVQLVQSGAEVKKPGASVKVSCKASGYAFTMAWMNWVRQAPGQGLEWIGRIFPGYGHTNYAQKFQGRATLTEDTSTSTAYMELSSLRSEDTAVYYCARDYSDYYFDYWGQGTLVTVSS VL: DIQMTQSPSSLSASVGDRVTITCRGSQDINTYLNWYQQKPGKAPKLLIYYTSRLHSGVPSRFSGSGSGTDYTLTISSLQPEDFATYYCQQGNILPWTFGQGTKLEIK was 3.3
